test system: human erythrocytes; assay: In vitro hemolytic activity; type: cell-based; conditions: human erythrocytes in PBS, 1 h, 37 °C, OD550; from dose response curves
Where a SMILES comes first, the peptide text is derived from it.
parameter.measured: HC50 (concentration causing 50% hemolysis)

compound	reported.value
CC[C@H](C)[C@H](NC(=O)[C@H](C)NC(=O)[C@H](CCCCN)NC(=O)[C@@H]1CCCN1C(=O)[C@@H](NC(=O)[C@H](CC(C)C)NC(=O)[C@H](CCCCN)NC(=O)[C@H](Cc1ccccc1)NC(=O)[C@H](CC(C)C)NC(=O)[C@@H](N)Cc1ccccc1)[C@@H](C)CC)C(=O)N[C@@H](CCCCN)C(=O)N[C@@H](CCCCN)C(=O)N[C@@H](CC(C)C)C(=O)N[C@H](C(=O)N[C@@H](CO)C(=O)N[C@@H](CCCCN)C(=O)N[C@@H](Cc1ccccc1)C(=O)N[C@@H](CCCCN)C(N)=O)[C@@H](C)CC [AamAP1-Lysa] (H-FLFKLIPKAIKKLISKFK-NH2)	256 µg/mL

Consider now this further compound.
In one line, give reported HC50 (concentration causing 50% hemolysis) of the entry CC[C@H](C)[C@H](NC(=O)[C@H](Cc1c[nH]c2ccccc12)NC(=O)[C@H](CC(=O)O)NC(=O)[C@H](Cc1c[nH]c2ccccc12)NC(=O)[C@@H](NC(=O)[C@H](CCCCN)NC(=O)CN)C(C)C)C(=O)N[C@@H](CCCCN)C(=O)N[C@@H](CO)C(=O)N[C@H](C(=O)N[C@@H](C)C(=O)N[C@@H](CCCCN)C(=O)N[C@@H](CCCCN)C(=O)N[C@@H](CC(C)C)C(=O)N[C@@H](Cc1c[nH]c2ccccc12)C(=O)N[C@@H](CC(N)=O)C(N)=O)[C@@H](C)O [Opis16a] (H-GKVWDWIKSTAKKLWN-NH2) .
> 256 µg/mL

* * *

Answer each item with its documented % HaCat cell death at initial screening (256μg/mL) ± SD.
system: HaCat cell line; test: In vitro HaCat cytotoxicity (MTT); type: cell-based, human; settings: 21 h exposure, OD570, relative to untreated control
Where a SMILES comes first, the peptide text is derived from it.

compound	target.entity	reported.value
CC[C@H](C)[C@H](N)C(=O)N[C@@H](CC(C)C)C(=O)N[C@@H](CCCCN)C(=O)N[C@@H](CCCCN)C(=O)N[C@H](C(=O)N[C@@H](Cc1c[nH]c2ccccc12)C(=O)N[C@@H](CCC(=O)O)C(=O)NCC(=O)N[C@H](C(=O)N[C@@H](CCCCN)C(=O)N[C@@H](CO)C(=O)N[C@@H](CC(C)C)C(=O)N[C@@H](Cc1ccccc1)C(N)=O)[C@@H](C)CC)[C@@H](C)CC [K3-IsCTa] (H-ILKKIWEGIKSLF-NH2)	HaCat cell line	104.1 ± 11.9%

For the 2 compounds below, give their % HaCat cell death at initial screening (256μg/mL) ± SD values.
1. CC[C@H](C)[C@H](NC(=O)[C@H](C)NC(=O)[C@H](Cc1c[nH]cn1)NC(=O)[C@@H]1CCCN1C(=O)[C@@H](NC(=O)[C@H](CC(C)C)NC(=O)[C@H](CO)NC(=O)[C@H](Cc1ccccc1)NC(=O)[C@H](CC(C)C)NC(=O)[C@@H](N)Cc1ccccc1)[C@@H](C)CC)C(=O)NCC(=O)NCC(=O)N[C@@H](CC(C)C)C(=O)N[C@H](C(=O)N[C@@H](CO)C(=O)N[C@@H](C)C(=O)N[C@@H](Cc1ccccc1)C(=O)N[C@@H](CCCCN)C(=O)O)[C@@H](C)CC
2. CC[C@H](C)[C@H](NC(=O)[C@H](C)NC(=O)[C@H](CCCCN)NC(=O)[C@@H]1CCCN1C(=O)[C@@H](NC(=O)[C@H](CC(C)C)NC(=O)[C@H](CCCCN)NC(=O)[C@H](Cc1ccccc1)NC(=O)[C@H](CC(C)C)NC(=O)[C@@H](N)Cc1ccccc1)[C@@H](C)CC)C(=O)N[C@@H](CCCCN)C(=O)N[C@@H](CCCCN)C(=O)N[C@@H](CC(C)C)C(=O)N[C@H](C(=O)N[C@@H](CO)C(=O)N[C@@H](CCCCN)C(=O)N[C@@H](Cc1ccccc1)C(=O)N[C@@H](CCCCN)C(N)=O)[C@@H](C)CC [AamAP1-Lysa] (H-FLFKLIPKAIKKLISKFK-NH2)

44.3 ±20.2%
94.8 ± 8.2%

* * *

tested on: C. krusei NCPF 3876; assay: microbe, parasite or virus in culture; assay type: cell-based; details: NCPF 3876, 20 h
Where a SMILES comes first, the peptide text is derived from it.
parameter.measured: Modal MIC90

Here's what some known entries look like.
compound	target.entity	reported.value
CC(C)C[C@H](NC(=O)CNC(=O)[C@H](Cc1ccccc1)NC(=O)[C@H](CCCCN)NC(=O)[C@H](Cc1ccccc1)NC(=O)[C@H](C)NC(=O)[C@@H](N)CCCCN)C(=O)N[C@@H](CCCCN)C(=O)N[C@H](C(=O)N[C@H](C(N)=O)C(C)C)[C@@H](C)O [CPF-MW-10a] (H-KAFKFGLKTV-NH2)	C. krusei NCPF 3876	> 110.8 µM
CC(C)[C@H](NC(=O)[C@H](CS)NC(=O)[C@@H](N)CCCNC(=N)N)C(=O)N[C@@H](CS)C(=O)N[C@H](C(=O)N[C@@H](CCCNC(=N)N)C(=O)NCC(=O)N[C@@H](Cc1ccccc1)C(=O)N[C@@H](CS)C(=O)O)[C@@H](C)O [ThetaDefA] (H-RCVCTRGFC-OH; N-terminus and C-terminus assumed)	C. krusei NCPF 3876	> 122.6 µM

Could you now consider this next compound?
Check the records and state Modal MIC90 for CC[C@H](C)[C@H](NC(=O)[C@H](CCCCN)NC(=O)CNC(=O)[C@@H](N)CC(C)C)C(=O)N[C@@H](C)C(=O)N[C@@H](CCCCN)C(=O)N[C@H](C(=O)NCC(=O)N[C@@H](CC(C)C)C(=O)N[C@@H](CCCCN)C(N)=O)C(C)C [XPF10a] (H-LGKIAKVGLK-NH2)
> 120.6 µM

* * *

System: C. glabrata NCPF 8018
Assay: microbe, parasite or virus in culture
Format: cell-based
Conditions: C. glabrata NCPF 8018; shown in µM
Procedure: […] The 46 peptides were serially diluted (128 to 2 μg/mL) in media down polypropylene 96-well plates. […] Plates were incubated at 37 °C for 20 h, and the optical density was determined spectrophotometrically at 600 nm. Minimum inhibition concentrations (MICs) were determined from a minimum of three biological repeats and are reported in μg/mL as well as μM. […]
Where a SMILES comes first, the peptide text is derived from it.
parameter.measured: Modal MIC90 (µM)
Give bare numbers, in µM.

# return recorded Modal MIC90 for input CC[C@H](C)[C@H](NC(=O)[C@H](CCCCN)NC(=O)[C@H](CCC(=O)O)NC(=O)[C@H](Cc1c[nH]c2ccccc12)NC(=O)[C@H](Cc1ccccc1)NC(=O)[C@H](CCCCN)NC(=O)CNC(=O)[C@H](CC(C)C)NC(=O)[C@H](C)N)C(=O)N[C@@H](CCCCN)C(=O)N[C@@H](CO)C(=O)N[C@@H](CC(C)C)C(=O)N[C@@H](Cc1ccccc1)C(N)=O [A1F5K8-IsCTa] (H-ALGKFWEKIKSLF-NH2)
79.9

* * *

Tested on: C. parapsilosis NCPF 3209
Assay: microbe, parasite or virus in culture
Assay type: cell-based
Settings: C. parapsilosis NCPF 3209; 50% growth inhibition; RPMI 1640 + 2% glucose, 37 °C, 20 h
Procedure: […] The 46 peptides were serially diluted (128 to 2 μg/mL) in media down polypropylene 96-well plates. […] Plates were incubated at 37 °C for 20 h, and the optical density was determined spectrophotometrically at 600 nm. Minimum inhibition concentrations (MICs) were determined from a minimum of three biological repeats and are reported in μg/mL as well as μM. […]
Where a SMILES comes first, the peptide text is derived from it.
parameter.measured: Modal MIC50

Past entries and their recorded results:
compound	Modal MIC50
CC[C@H](C)[C@H](NC(=O)[C@H](CCCCN)NC(=O)[C@H](CC(C)C)NC(=O)[C@H](C)NC(=O)[C@H](C)NC(=O)[C@H](CCCCN)NC(=O)[C@H](CC(C)C)NC(=O)[C@H](C)NC(=O)[C@@H](N)CCCCN)C(=O)NCC(N)=O [CPF-P3-10a] (H-KALKAALKIG-NH2)	> 128 µg/mL
CC(C)C[C@H](NC(=O)[C@H](CCCCN)NC(=O)[C@H](CO)NC(=O)[C@H](CCCCN)NC(=O)[C@@H](N)Cc1c[nH]c2ccccc12)C(=O)N[C@@H](C)C(=O)N[C@@H](CCCCN)C(=O)N[C@@H](CCCCN)C(N)=O [PS-PB-8a] (H-WKSKLAKK-NH2)	> 128 µg/mL

Print C. parapsilosis NCPF 3209 Modal MIC50 for CC(C)[C@H](NC(=O)CNC(=O)[C@H](CCCNC(=N)N)NC(=O)[C@@H](N)CCCNC(=N)N)C(=O)N[C@@H](CS)C(=O)N[C@@H](CCCNC(=N)N)C(=O)N[C@@H](CS)C(=O)N[C@H](C(=O)N[C@@H](CS)C(=O)N[C@@H](CCCNC(=N)N)C(=O)N[C@@H](CCCNC(=N)N)C(N)=O)C(C)C [BTD11a] (H-RRGVCRCVCRR-NH2; N-terminus assumed) .
4 µg/mL
